Cited source: patent US20240207429A1

Biological target: T1, Cynomolgus/Rhesus macaque FOLR1 Protein, His Tag (ACRO, F01-C52H8) (cynomolgus, UniProt A0A2K5U044 25-233)
T1 construct: also called cynomolgus FOLR1 protein; not shown: His tag
T1 sequence (A0A2K5U044 entry or part of it): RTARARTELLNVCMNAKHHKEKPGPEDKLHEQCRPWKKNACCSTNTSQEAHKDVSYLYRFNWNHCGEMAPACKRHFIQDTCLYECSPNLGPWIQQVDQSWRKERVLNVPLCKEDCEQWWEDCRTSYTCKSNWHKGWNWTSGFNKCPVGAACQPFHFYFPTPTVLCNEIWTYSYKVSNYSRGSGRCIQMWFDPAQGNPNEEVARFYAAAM
Test: ELISA, supernatant diluted 5x
Readings of OD450 for the listed binders

{"BINDER": "F112 (antibody, V domains shown, also called clone F112; anti-FOLR1 antibody F112) VH: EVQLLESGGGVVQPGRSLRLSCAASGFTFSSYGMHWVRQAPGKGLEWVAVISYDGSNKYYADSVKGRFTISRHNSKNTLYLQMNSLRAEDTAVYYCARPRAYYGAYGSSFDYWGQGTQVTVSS VL: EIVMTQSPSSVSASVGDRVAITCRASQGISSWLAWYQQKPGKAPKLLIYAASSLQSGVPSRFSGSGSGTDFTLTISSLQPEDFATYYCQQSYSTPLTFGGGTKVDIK", "OD450": 1.21}
{"BINDER": "F123 (antibody, V domains shown, also called clone F123; anti-FOLR1 antibody F123) VH: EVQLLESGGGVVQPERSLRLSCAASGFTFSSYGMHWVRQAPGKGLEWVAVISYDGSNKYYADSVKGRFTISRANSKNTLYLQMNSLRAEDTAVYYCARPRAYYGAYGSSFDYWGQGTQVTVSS VL: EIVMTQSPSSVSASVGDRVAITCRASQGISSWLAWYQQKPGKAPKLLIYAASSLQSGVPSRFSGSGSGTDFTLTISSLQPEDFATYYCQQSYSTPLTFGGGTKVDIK", "OD450": 1.3}
{"BINDER": "F48 (antibody, V domains shown, also called clone F48; anti-FOLR1 antibody F48) VH: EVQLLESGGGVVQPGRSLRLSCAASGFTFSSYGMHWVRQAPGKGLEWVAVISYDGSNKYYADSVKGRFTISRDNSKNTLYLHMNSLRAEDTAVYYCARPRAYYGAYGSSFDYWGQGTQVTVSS VL: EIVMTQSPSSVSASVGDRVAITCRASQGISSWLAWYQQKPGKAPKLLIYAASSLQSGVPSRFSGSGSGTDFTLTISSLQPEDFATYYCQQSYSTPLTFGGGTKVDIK", "OD450": 1.04}
